For each of the compounds below, state its melting point.

Given item CC1(c2ccc(OCc3ccc(-c4ccccc4)cc3)cc2)CCSC(N)=N1.Cl (stereo not drawn) , the value recorded as its melting point is 281 °C (dec.)

Documented melting point of CC1(c2ccc3c(c2)OCCO3)CCNC(N)=N1.Cl (stereo not drawn) : 198 to 201 °C

For reference, reported melting point for CC1(c2cc(F)cc(NC(=O)c3ccc(Cl)cn3)c2)CCSC(N)=N1 (stereo not drawn) stands at 221 to 224 °C

Form: compound = COC(=O)c1cc(C(=O)Nc2cccc(C3(C)CCSC(N)=N3)c2)nn1C (stereo not drawn) ; melting point = 164 to 167 °C

Entry under test: COc1cnc(C(=O)Nc2cccc(C3(C)CCSC(N)=N3)c2)cn1 (stereo not drawn) . Its melting point was 182 to 184 °C

Lab note: COc1ccc(OCc2cccc(C3(C)CCSC(N)=N3)c2)cc1 (stereo not drawn) gave melting point of 137 to 138 °C

// recorded melting point for CC1(c2cccc(/C=N/O)c2)CCSC(N)=N1 (stereo not drawn) : 200 to 202 °C

Record CC1(c2cc(NC(=O)c3ncc(Cl)cc3Cl)ccc2F)CCSC(N)=N1 (stereo not drawn) , field melting point: 134 to 137 °C

Input CC1(c2cccc(C(=O)Nc3ccc(Cl)cc3)c2)CCSC(N)=N1 (stereo not drawn) . Output melting point: 177 to 178 °C

====

Provide the recorded IC50 for the entries that follow.
# TEST_TARGET: recombinant human BACE-1 protein (Homo sapiens (Human), UniProt P56817)
# Sequence (P56817 46-501): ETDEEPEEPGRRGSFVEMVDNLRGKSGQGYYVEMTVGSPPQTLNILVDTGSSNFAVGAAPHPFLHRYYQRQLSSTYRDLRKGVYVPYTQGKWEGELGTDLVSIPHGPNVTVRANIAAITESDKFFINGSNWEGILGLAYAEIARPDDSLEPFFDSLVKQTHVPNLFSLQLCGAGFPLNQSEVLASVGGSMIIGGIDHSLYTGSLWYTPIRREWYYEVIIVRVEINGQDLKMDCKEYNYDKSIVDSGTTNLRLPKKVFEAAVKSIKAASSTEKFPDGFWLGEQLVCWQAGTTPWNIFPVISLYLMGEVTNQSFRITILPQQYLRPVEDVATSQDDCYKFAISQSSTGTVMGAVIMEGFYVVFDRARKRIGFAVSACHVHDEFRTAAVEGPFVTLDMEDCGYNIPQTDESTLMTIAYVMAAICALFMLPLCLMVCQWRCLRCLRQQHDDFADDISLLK
# ASSAY_PROCEDURE: Measurement of Inhibition of β-Secretase Activity
# Format: biochemical
# PARTICULARS: recombinant human BACE-1 protein, 3 h at 30° C., pH5.0; read-out: IC50 value
# Method: Zero point five μL of the test compounds (dissolved in N,N′-dimethylsulfoxide) were incubated with 48.5 μL of the fluorescence-quenched peptide substrate solution (Biotin-XSEVNLDAEFRHDSGC-Eu:X=ε-amino-n-capronic acid, Eu=Europium cryptate) and 1 μL of recombinant human BACE-1 protein (R&D systems) for 3 h at 30° C. in the 96 well half-area plate (black color plate, Costar). […]
Write the value in nM as a bare number.

Record CC1(c2cc(Br)cc(NC(=O)c3ccc(Cl)cn3)c2)CCSC(N)=N1.Cl (stereo not shown) [Compound 165] ; system recombinant human BACE-1 protein (Homo sapiens (Human), UniProt P56817); IC50 = 39.4

Item COCc1cc(NC(=O)c2ccc(C)cc2)cc(C2(C)CCSC(N)=N2)c1 (stereo not shown) [Compound 465] was tested on recombinant human BACE-1 protein (Homo sapiens (Human), UniProt P56817); the reported IC50 is 3240

Tested on recombinant human BACE-1 protein (Homo sapiens (Human), UniProt P56817): CC1(c2cccc(OCCCc3ccc(Cl)cc3)c2)CCSC(N)=N1 (stereo not shown) [Compound 1207] . Observed IC50: 4000

Tested on recombinant human BACE-1 protein (Homo sapiens (Human), UniProt P56817): CC(C)Oc1cc(NC(=O)c2ccc(Cl)cn2)cc(C2(C)CCSC(N)=N2)c1.Cl (stereo not shown) [Compound 1135] . Observed IC50: 2300

Record CC1(c2cccc(OCC(=O)Nc3cccc(O)c3)c2)CCSC(N)=N1 (stereo not shown) [Compound 269] has recombinant human BACE-1 protein (Homo sapiens (Human), UniProt P56817) IC50 equal to 7000

Assay recombinant human BACE-1 protein (Homo sapiens (Human), UniProt P56817), sample CC1(c2cc(Cl)cc(NC(=O)c3ccco3)c2)CCSC(N)=N1 (stereo not shown) [Compound 822] , IC50 read: 243

Entry CC1(c2cccc(C(=O)Nc3ccc(Cl)cn3)c2)CCSC(N)=N1.Cl.Cl (stereo not shown) [Compound 220] , tested on recombinant human BACE-1 protein (Homo sapiens (Human), UniProt P56817), has a reported IC50 of 1500

Record CC1(c2cccc(NC(=O)c3ccc(C(N)=O)cn3)c2)CCSC(N)=N1.Cl (stereo not shown) [Compound 73] has recombinant human BACE-1 protein (Homo sapiens (Human), UniProt P56817) IC50 equal to 435

Fill in: recombinant human BACE-1 protein (Homo sapiens (Human), UniProt P56817) IC50 for Cc1ccc(NC(=O)COc2cccc(C3(C)CCSC(N)=N3)c2)cc1O (stereo not shown) [Compound 639] = 7900

Considering CC1(c2cccc(OCC(=O)Nc3ccc(F)cc3)c2)CCSC(N)=N1 (stereo not shown) [Compound 1186] , its IC50 with recombinant human BACE-1 protein (Homo sapiens (Human), UniProt P56817) was recorded as 5700

Param item: CC1(c2cccc(NC(=O)c3ncc(Cl)cc3Cl)c2)CCSC(N)=N1.Cl (stereo not shown) [Compound 127] ; param system: recombinant human BACE-1 protein (Homo sapiens (Human), UniProt P56817); output IC50: 54

Record CC1(c2cc(Cl)cc(NC(=O)c3cc4ccccc4s3)c2)CCSC(N)=N1 (stereo not shown) [Compound 832] ; system recombinant human BACE-1 protein (Homo sapiens (Human), UniProt P56817); IC50 = 222

Hey, recombinant human BACE-1 protein (Homo sapiens (Human), UniProt P56817) data for CC1(c2cccc(NC(=O)c3ccc(C(F)(F)F)cn3)c2)CCSC(N)=N1.Cl (stereo not shown) [Compound 1244] : IC50 came out at 130

Item CC1(c2cccc(NC(=O)c3ccc(C(F)(F)F)cc3)c2)CCSC(N)=N1 (stereo not shown) [Compound 26] was tested on recombinant human BACE-1 protein (Homo sapiens (Human), UniProt P56817); the reported IC50 is 1980

Field IC50 (recombinant human BACE-1 protein (Homo sapiens (Human), UniProt P56817)), entry CC1(c2cccc(NC(=O)c3ccc(Cl)cc3Cl)c2)CCSC(N)=N1 (stereo not shown) [Compound 625] : 1290

Tested on recombinant human BACE-1 protein (Homo sapiens (Human), UniProt P56817): CC1(c2cccc(/C=C/C(=O)Nc3ccc(Cl)cn3)c2)CCSC(N)=N1.Cl.Cl (stereo not shown) [Compound 504] . Observed IC50: 2500
